Attribute: folding stability dG
B1: r11_951_TrROS_Hall (parent)
chain: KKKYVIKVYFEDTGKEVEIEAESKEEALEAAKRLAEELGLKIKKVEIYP

Variants of: B1
Assay: folding stability dG (cDNA display proteolysis); higher = more stable
Settings: PBS, room temperature
The reply should be a number in kcal/mol, with the unit left off.

Check out these entries, answers already filled in.
>>> measured("E25F")
4.34
>>> measured("I47D")
3.99

Now for another entry.
response.value for E37S (field: folding stability dG) = 4.71

Where do the numbers come from? From the MegaScale stability set (Tsuboyama et al. 2023).
